- systemName: human CXCR3 (N-delta 4) (Homo sapiens)
- Construct: CD8 leader (N); Flag; expressed in transfected cells; membranes prepared
- experimentalDetails: Human CXCR3 (N-delta 4) Scintillation Proximity Assay (SPA), [125I] IP-10 binding to Ba/F3-hCXCR3 membranes
- conditionDetails: IC50 rating, Table 1; read-out: IC50
- Source text: The inventive compounds can readily be evaluated to determine activity at the CXCR3 receptors by known methods, such as, for example, development of a human CXCR3 (N-delta 4) Binding Assay. Cloning and Expression of Human CXCR3 (N-delta 4): The DNA encoding human CXCR3 was cloned by PCR using human genomic DNA (Promega, Madison, Wis.) as a template. […]
pIC50: −log10 of the molar value.
// reported pIC50 per item

compound	recordedMeasurement
CC[C@H]1CN(c2nc(N)c(C(=O)NCCNS(C)(=O)=O)nc2Cl)CCN1C1CCN([C@H](CO)c2ccc(Cl)cc2)CC1 [compound 249]	7.00 to 7.60
CC[C@H]1CN(c2nc(N)c(C(N)=O)nc2Cl)CCN1C1CCN(Cc2ccc(Cl)cc2C(O)C(=O)N(C)C)CC1 (stereo partly drawn) [compound 378]	> 7.60
CC[C@H]1CN(c2nc(N)c(C(=O)NC[C@@H](C)O)nc2Cl)CCN1C1CCN(Cc2ccc(Cl)cc2CCNC(C)=O)CC1 [compound 224]	7.00 to 7.60

Answer with reported pIC50 of COC(=O)c1nc(Cl)c(N2CCN(C3CCN(Cc4ccc(Cl)cc4)CC3)[C@@H](C)C2)nc1N [compound 302]
< 7.00

Answer with reported pIC50 of CC[C@H]1CN(c2nc(N)c(C(N)=O)nc2Cl)CCN1C1CCN(Cc2ccc(Cl)cc2CCNC=O)CC1 [compound 32]
7.00 to 7.60

Answer with reported pIC50 of CC[C@H]1CN(c2nc(N)c(C(=O)NCCO)nc2Cl)CCN1C1CCN(Cc2ccc(OC(F)(F)F)cc2OCCCO)CC1 [compound 125]
> 7.60

Answer with reported pIC50 of CC[C@H]1CN(c2nc(N)c(C(=O)NCCNS(=O)(=O)N(C)C)nc2Cl)CCN1C1CCN(Cc2ccc(C#N)cc2)CC1 [compound 255]
7.00 to 7.60

Answer with reported pIC50 of CC[C@H]1CN(c2ncc(C(=O)NC3CC3)nc2C)CCN1C1CCN(C(=O)c2ccc(F)cc2F)CC1 [compound 462]
> 7.60

###

- systemName: human CXCR3 (N-delta 4) (Homo sapiens, UniProt P49682)
- Construct: CD8 leader (N); Flag; expressed in transfected cells; membranes prepared
- Sequence (P49682 5-368 limits assumed): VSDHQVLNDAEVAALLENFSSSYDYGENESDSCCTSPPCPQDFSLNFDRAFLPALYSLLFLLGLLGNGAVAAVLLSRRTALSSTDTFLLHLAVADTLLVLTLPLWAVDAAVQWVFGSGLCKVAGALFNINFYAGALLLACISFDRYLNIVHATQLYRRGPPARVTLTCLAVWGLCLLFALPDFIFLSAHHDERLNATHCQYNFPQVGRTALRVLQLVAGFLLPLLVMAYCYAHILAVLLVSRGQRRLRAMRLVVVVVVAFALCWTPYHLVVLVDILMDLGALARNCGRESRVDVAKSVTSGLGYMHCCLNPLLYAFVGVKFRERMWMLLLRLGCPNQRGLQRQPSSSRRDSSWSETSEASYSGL
- experimentalDetails: Human CXCR3 (N-delta 4) Scintillation Proximity Assay (SPA), [125I] IP-10 binding to Ba/F3-hCXCR3 membranes
- conditionDetails: IC50 rating, Table 1; read-out: IC50
assayReadout: IC50

CC[C@H]1CN(c2nc(N)c(C(=O)NC3CC3)nc2Cl)CCN1C1CCN(Cc2ccc(Cl)cc2CN)CC1 < 25 nM

Answer with reported IC50 of CC[C@H]1CN(c2nc(N)c(C(=O)NCCO)nc2Cl)CCN1C1CCN(Cc2ccc(-c3csnn3)cc2)CC1
< 25 nM

Answer with reported IC50 of CCNC(=O)c1cnc(N2CCN(C3CCN(C(=O)c4ccc(Cl)cc4)CC3)[C@@H](CC)C2)c(C)n1
< 25 nM

###

- systemName: human CXCR3 (N-delta 4) (Homo sapiens, UniProt P49682)
- Construct: CD8 leader (N); Flag; expressed in transfected cells; membranes prepared
- experimentalDetails: Human CXCR3 (N-delta 4) Scintillation Proximity Assay (SPA), [125I] IP-10 binding to Ba/F3-hCXCR3 membranes
- conditionDetails: IC50 rating, Table 1; read-out: IC50
assayReadout: IC50

molecule	assayReadout	recordedMeasurement
CC[C@H]1CN(c2nc(N)c(C(=O)NCCO)nc2Cl)CCN1C1CCN([C@H](CO)c2ccc(Cl)cc2)CC1	IC50	< 25 nM
CC[C@H]1CN(c2nc(N)c(C(=O)NCCO[Si](C(C)C)(C(C)C)C(C)C)nc2Cl)CCN1C1CCN(Cc2ccc(F)c(F)c2N2CC[C@H](O)C2)CC1	IC50	> 100 nM
CC[C@H]1CN(c2nc(N)c(C(=O)NCCO)nc2Cl)CCN1C1CCN(Cc2ccc(Cl)cc2OCC(N)=O)CC1	IC50	< 25 nM
CC[C@H]1CN(c2nc(N)c(C(=O)NC)nc2Cl)CCN1C1CCN(C(=O)c2ccc(Cl)c(N)c2)CC1	IC50	> 100 nM

Now let's try a different one.
Name the recorded IC50 of CC[C@H]1CN(c2nc(N)c(C(=O)NCCO)nc2Cl)CCN1C1CCN(C(CCNC(C)=O)c2ccc(Cl)cc2)CC1 (some centres unmarked) , assay system human CXCR3 (N-delta 4) (Homo sapiens, UniProt P49682).
25 to 100 nM

###

- systemName: human CXCR3 (N-delta 4) (Homo sapiens)
- Construct: CD8 leader (N); Flag; expressed in transfected cells; membranes prepared
- experimentalDetails: Human CXCR3 (N-delta 4) Scintillation Proximity Assay (SPA), [125I] IP-10 binding to Ba/F3-hCXCR3 membranes
- conditionDetails: IC50 rating, Table 1; read-out: IC50
- Description: The inventive compounds can readily be evaluated to determine activity at the CXCR3 receptors by known methods, such as, for example, development of a human CXCR3 (N-delta 4) Binding Assay. Cloning and Expression of Human CXCR3 (N-delta 4): The DNA encoding human CXCR3 was cloned by PCR using human genomic DNA (Promega, Madison, Wis.) as a template. […]
assayReadout: IC50

Please review the entries below; each comes with its answer.
molecule	systemName	assayReadout	recordedMeasurement
CC[C@H]1CN(c2nc(N)c(C(=O)NC)nc2Cl)CCN1C1CCN(C(=O)C2(N)CCc3ccccc3C2)CC1 (stereo partly drawn) [compound 369]	human CXCR3 (N-delta 4) (Homo sapiens)	IC50	> 0.1 µM
CC[C@H]1CN(c2nc(N)c(C(=O)NCCO)nc2Cl)CCN1C1CCN(Cc2ccc(Cl)cc2C(=N)N)CC1 [compound 111]	human CXCR3 (N-delta 4) (Homo sapiens)	IC50	< 0.025 µM

Answer with reported IC50 of CC[C@H]1CN(c2ncc(C(=O)NC3CC3)nc2C(F)(F)F)CCN1C1CCN(C(=O)c2ccc(Cl)cc2)CC1 [compound 489]
< 0.025 µM

Answer with reported IC50 of CC[C@H]1CN(c2nc(N)c(C(N)=O)nc2Cl)CCN1C1CCN(Cc2ccc(Cl)cc2S(N)(=O)=O)CC1 [compound 401]
< 0.025 µM

Answer with reported IC50 of CC[C@H]1CN(c2ncc(C(=O)NC3CC3)nc2C)CCN1C1CCN(Cc2ccc(F)c(F)c2)CC1 [compound 450]
< 0.025 µM

Answer with reported IC50 of CC[C@H]1CN(c2nc(N)c(C(=O)NC)nc2Cl)CCN1C1CCN([C@@H](C(N)=O)c2ccc(Cl)cc2)CC1 [compound 76]
> 0.1 µM

Answer with reported IC50 of CC[C@H]1CN(c2nc(N)c(C(N)=O)nc2Cl)CCN1C1CCN(Cc2ccc(Cl)cc2C(N)C(N)=O)CC1 (stereo partly drawn) [compound 381]
0.025 to 0.1 µM

Answer with reported IC50 of CNC(=O)c1cnc(N2C[C@H](C)N(C3CCN(Cc4ccc(Cl)cc4F)CC3)C[C@H]2C)cn1 [compound 287]
> 0.1 µM

Answer with reported IC50 of CC[C@H]1CN(c2nc(N)c(C(=O)NCCO)nc2Cl)CCN1C1CCN(Cc2ccc(F)c(F)c2N2CC[C@@H](O)C2)CC1 [compound 135]
< 0.025 µM

Answer with reported IC50 of CC[C@H]1CN(c2nc(N)c(C(=O)NCCCO)nc2Cl)CCN1C1CCN(Cc2ccc(Cl)cc2)CC1 [compound 227]
0.025 to 0.1 µM

Answer with reported IC50 of CC[C@H]1CN(c2nc(N)c(C(=O)NC)nc2Cl)CCN1C1CCN(C(CO)c2ccc(Cl)cc2)CC1 (stereo partly drawn) [compound 63]
< 0.025 µM

Answer with reported IC50 of CC[C@H]1CN(c2nc(N)c(C(=O)NC)nc2Cl)CCN1C1CCN(CCCC(=O)c2ccc(Cl)cc2)CC1 [compound 73]
0.025 to 0.1 µM

###

// reported pIC50 per item
- systemName: human CXCR3 (N-delta 4) (Homo sapiens, UniProt P49682)
- Construct: CD8 leader (N); Flag; expressed in transfected cells; membranes prepared
- experimentalDetails: Human CXCR3 (N-delta 4) Scintillation Proximity Assay (SPA), [125I] IP-10 binding to Ba/F3-hCXCR3 membranes
- conditionDetails: IC50 rating, Table 1; read-out: IC50
pIC50: −log10 of the molar value.

compound	pIC50
CC[C@H]1CN(c2nc(N)c(C(N)=O)nc2Cl)CCN1C1CCN(Cc2ccc(C(=O)NC)cc2)CC1	< 7.00
CC[C@H]1CN(c2nc(N)c(C(=O)NC3CC3)nc2Cl)CCN1C1CCN(C(=O)c2ccc(Cl)cc2O)CC1	> 7.60

Now let's try a different one.
Name the recorded pIC50 of CC[C@H]1CN(c2nc(NC(=O)N(C)C)c(C(=O)OC)nc2Cl)CCN1C1CCN(Cc2ccc(Cl)cc2)CC1 , assay system human CXCR3 (N-delta 4) (Homo sapiens, UniProt P49682).
7.00 to 7.60
